- METHOD_SUMMARY: xn = mol fraction of the nth substance listed, in the solute-free solvent
- TEST_CONDITIONS: 303.15 K; x2 = 0.4
METRIC_NAME: solubility (g/100 g solution)
Answer with a bare number; do not write a unit.

Exercise: Using the record for CC(N)C(=O)O (stereo unspecified) + O + CCO , state its measured solubility (g/100 g solution).
Solution: 0.245

Exercise: Using the record for OCCN(CCO)c1nc(N2CCCCC2)c2nc(N(CCO)CCO)nc(N3CCCCC3)c2n1 + CO + O , state its measured solubility (g/100 g solution).
Solution: 0.48

Exercise: Using the record for CC(N)C(=O)O (stereo unspecified) + O + CC(C)O , state its measured solubility (g/100 g solution).
Solution: 0.143

Exercise: Using the record for S=c1[nH]ncs1 + CCO + O , state its measured solubility (g/100 g solution).
Solution: 13.6

Exercise: Using the record for Cc1ncc(C[n+]2csc(CCO)c2C)c(N)n1.O=[N+]([O-])[O-] + O + CO , state its measured solubility (g/100 g solution).
Solution: 1.64

Exercise: Using the record for CCCCCOC(=O)Nc1nc(=O)n(C2OC(C)C(O)C2O)cc1F (stereo unspecified) + CCOC(C)=O + CCCCCC , state its measured solubility (g/100 g solution).
Solution: 0.255

* * *

- METHOD_SUMMARY: xn = mol fraction of the nth substance listed, in the solute-free solvent
- TEST_CONDITIONS: 283.15 K; x2 = 0.2307
Respond with satisfied for solubility (g/100 g solution) values of 0.1 and above, not satisfied for values below.

Previously resolved entries follow.
COMPOUND: c1ccc2[nH]c(-c3cscn3)nc2c1 + CCCO + O
CLASSIFICATION: satisfied

COMPOUND: Cc1[nH]c(=O)c(C#N)cc1-c1ccncc1 + CC(C)O + O
CLASSIFICATION: not satisfied

Exercise: Reported solubility (g/100 g solution) at or above 0.1? CN1CCN(C2=Nc3cc(Cl)ccc3Nc3ccccc32)CC1 + CC(C)O + O
Solution: satisfied

Exercise: Reported solubility (g/100 g solution) at or above 0.1? Nc1nccnc1Cl + CC(C)O + O
Solution: satisfied

Exercise: Reported solubility (g/100 g solution) at or above 0.1? c1ccc2[nH]c(-c3cscn3)nc2c1 + CC(C)O + O
Solution: not satisfied

Exercise: Reported solubility (g/100 g solution) at or above 0.1? Nc1cccc(S(=O)(=O)c2cccc(N)c2)c1 + CC(C)O + O
Solution: satisfied

* * *

- METHOD_SUMMARY: xn = mol fraction of the nth substance listed, in the solute-free solvent
- TEST_CONDITIONS: 303.15 K; x2 = 0.7
Respond with label 1 for solubility (g/100 g solution) values of 10 and above, label 0 for values below.

Previously resolved entries follow.
COMPOUND: OCCN(CCO)c1nc(N2CCCCC2)c2nc(N(CCO)CCO)nc(N3CCCCC3)c2n1 + CO + O
CLASSIFICATION: label 0
//
COMPOUND: OCCN(CCO)c1nc(N2CCCCC2)c2nc(N(CCO)CCO)nc(N3CCCCC3)c2n1 + CC(C)O + O
CLASSIFICATION: label 1
//
COMPOUND: S=c1[nH]ncs1 + CO + O
CLASSIFICATION: label 1
//
COMPOUND: CC(N)C(=O)O (stereo unspecified) + O + CCO
CLASSIFICATION: label 0
//
COMPOUND: CC(N)C(=O)O (stereo unspecified) + O + CCCO
CLASSIFICATION: label 0

Exercise: Reported solubility (g/100 g solution) at or above 10? Cc1ncc(C[n+]2csc(CCO)c2C)c(N)n1.O=[N+]([O-])[O-] + O + CO
Solution: label 0
